System: NF-κB pathway, THP1-Dual™ cells
assayName: STING reporter assay in THP1-Dual cells, NF-κB pathway (SEAP, QUANTI-Blue)
Type: cell-based, human
experimentalContext: Homo sapiens, THP1-Dual, 20 h, THP1-Dual cells, 10% human plasma, 20 hours; SEAP; 100% activation = 100 μM cGAMP; read-out: NFkB (EC50 μM)
quantityKind: EC50 (µM)
State just the number; it will be interpreted in µM.

Data point: C[C@H](NC(=O)c1cnn2cccnc12)c1oc2c(C(=O)O[C@H](C)C(F)(F)F)cc(Cl)cc2c1Cl [EXAMPLE 296] ; EC50 = 4.6

Data point: COC(OC(=O)c1cc(F)cc2cc(CNC(=O)c3cnc4cccnn34)oc12)C(F)(F)F (single isomer, unassigned) [EXAMPLE 313] ; EC50 = 3

Data point: COC(=O)c1cc(Cl)cc2cc(CNC(=O)c3cncc4scnc34)oc12 [Example 72] ; EC50 = 17

Origin of the recorded values: patent US12673954B2
